Here the recorded koff is given for each entry.
Target: T1, HuCTLA4-HuIgG1 (fusion protein of the extracellular part of human CD152 and human Fc gamma 1, CTLA4-Ig) (human, UniProt P16410 36-161)
T1 construct: extracellular domain; also called CTLA4-hFc; CTLA4-Fc; not shown: human Fc gamma 1
T1 sequence (P16410 36-161 limits assumed): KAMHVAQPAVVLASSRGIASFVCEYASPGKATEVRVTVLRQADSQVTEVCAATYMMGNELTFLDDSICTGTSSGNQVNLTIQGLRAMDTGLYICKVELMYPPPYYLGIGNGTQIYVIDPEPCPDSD
Experiment: SPR, Biacore T100, CTLA4-Ig amine-coupled

{"BINDER": "4CTLAPMP11E3 (VHH, also called 11E3 WT; not shown: C-terminal c-myc tag and His6 tag) VHH: EVQLVESGGGLVEPGGSLRLSCAASGSISSYNVMGWYRQAPGQQRDLVAHIASNGEIMYADSAKGRFTISRDNAKKTVYLQMNSLKPEDTAVYYCKLWVLGNDYWGQGTQVTVSS", "U": "s⁻¹", "koff": 0.00496}
{"BINDER": "4CTLAPMP02A5 (VHH, short label tied to the entry by the clone code only; not shown: C-terminal c-myc tag and His6 tag) VHH: EVQLVESGGGLVQAGGSLRLSCAASGRTNSTTLMGWSRRAPGKEREFVAAISGSGTLTSYADSVKGRFAISRDNAKNTVYLQMNSLKPEDTAIYYCAAGLTSWALIPSRTLTTWGQGTQVTVSS", "U": "s⁻¹", "koff": 0.0053}
{"BINDER": "4CTLAPMP12H2 (VHH, short label tied to the entry by the clone code only; not shown: C-terminal c-myc tag and His6 tag) VHH: EVQLVESGGGLVEPGGSLRLSCAASGSISSYNVMGWYRQAPGQQRDLVAHIASNGEIMYADSAKGRFTISRDNAKKTVYLQMNSLKPEDTAVYYCKLWVLGNDYWGQRTQVTVSS", "U": "s⁻¹", "koff": 0.00258}
{"BINDER": "4CTLAPMP2G9 (VHH, short label tied to the entry by the clone code only; not shown: C-terminal c-myc tag and His6 tag) VHH: EVQLVKSGGQLVQAGGSLRLSCAATGRTYNSYPLGWFRQAPGKEREFVAAISASGTLRAYADSVKGRFTISRDSAKNTVYLQMNNLKPEDTAVYYCARARSVGWRASHHLSDYDNWGQGTQVTVSS", "U": "s⁻¹", "koff": 0.00732}
{"BINDER": "4CTLAPMP02F4 (VHH, short label tied to the entry by the clone code only; not shown: C-terminal c-myc tag and His6 tag) VHH: EVQLVESGGGLVQTGGSLRLSCAASGRTFSNYTMGWFRQAPGKDREFVAAISRSGALKAYADSVKGRFTPSRDNAKKMAYLQMNSLKPEDTAVYYCAAAPVPWGTRPSFFPYDSWGQGTQVTVSS", "U": "s⁻¹", "koff": 0.00266}
{"BINDER": "4CTLAPMP02G2 (VHH, short label tied to the entry by the clone code only; not shown: C-terminal c-myc tag and His6 tag) VHH: EVQLVESRGGLVQTGGSLRLSCAASGRTFSNYTMGWFRQAPGKDREFVAAISRSGSLKSYADSVKGRFTISRDNAKKMAYLQMNSLKPEDTAVYYCAAAPVPWGTRPSFFTYDSWGQGTQVTVSS", "U": "s⁻¹", "koff": 0.00355}
